Listed next: entries and their corresponding pIC50.
# tested_system: Adenylatcyclase
# experimental_protocol: Adenylatcyclase
pIC50: −log10 of the molar value.
reported_metric: pIC50

{"compound": "COc1ccc2[nH]cc(SCCNCCCCN3C(=O)CC4(CCCC4)CC3=O)c2c1", "assay_value": 7.52}
{"compound": "O=C1CC2(CCCC2)CC(=O)N1CCCCNCCSc1c[nH]c2ccccc12", "assay_value": 8.00}
{"compound": "COc1ccc2[nH]cc(SCCNCCCCN3C(=O)c4ccccc4C3=O)c2c1", "assay_value": 6.85}
{"compound": "O=C1c2ccccc2S(=O)(=O)N1CCCCNCCSc1c[nH]c2ccccc12", "assay_value": 7.70}
{"compound": "COc1ccc2[nH]cc(OCCNCCCCN3C(=O)C4C5C=CC(C6C=CC65)C4C3=O)c2c1 (centres unmarked)", "assay_value": 8.40}

====

Observed IC50 for 5-HT1B (Rattus norvegicus, UniProt P28564), reported per entry below.

{"compound": "COc1ccc2[nH]cc(OCCNCCCCN3C(=O)CC4(CCCC4)CC3=O)c2c1 [Example 23]", "tested_system": "5-HT1B (Rattus norvegicus, UniProt P28564)", "IC50": "> 1000 nM"}
{"compound": "COc1ccc2[nH]cc(OCCNCCCCN3C(=O)C4C5C=CC(C6C=CC65)C4C3=O)c2c1 (centres unmarked) [Example 24]", "tested_system": "5-HT1B (Rattus norvegicus, UniProt P28564)", "IC50": "> 1000 nM"}
{"compound": "O=C1c2ccccc2S(=O)(=O)N1CCCCNCCSc1c[nH]c2ccccc12 [Example 6]", "tested_system": "5-HT1B (Rattus norvegicus, UniProt P28564)", "IC50": "> 1000 nM"}
{"compound": "COc1ccc2[nH]cc(SCCNCCCCN3C(=O)C4C5C=CC(C6CC56)C4C3=O)c2c1 (centres unmarked) [Example 10]", "tested_system": "5-HT1B (Rattus norvegicus, UniProt P28564)", "IC50": "> 1000 nM"}
{"compound": "O=C1c2ccccc2S(=O)(=O)N1CCCCN1CCN(c2ncccn2)CC1 [ipsapirone, reference compound]", "tested_system": "5-HT1B (Rattus norvegicus, UniProt P28564)", "IC50": "> 1000 nM"}
